- target: MtUGM (Mycobacterium tuberculosis, UniProt P9WIQ1)
- Construct: made in house
- Sequence (P9WIQ1 whole entry): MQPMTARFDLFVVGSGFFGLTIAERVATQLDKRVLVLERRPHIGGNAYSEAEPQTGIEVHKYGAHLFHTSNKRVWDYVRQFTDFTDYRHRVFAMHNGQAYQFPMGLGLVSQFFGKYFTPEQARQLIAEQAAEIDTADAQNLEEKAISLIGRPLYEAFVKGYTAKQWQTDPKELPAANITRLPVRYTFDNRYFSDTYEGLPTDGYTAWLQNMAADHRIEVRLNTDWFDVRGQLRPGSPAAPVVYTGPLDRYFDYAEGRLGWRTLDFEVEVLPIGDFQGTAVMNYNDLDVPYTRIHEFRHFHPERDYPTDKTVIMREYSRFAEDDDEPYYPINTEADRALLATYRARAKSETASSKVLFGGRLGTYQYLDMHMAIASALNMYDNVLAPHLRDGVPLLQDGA
- assay.overview: Competitive binding FP inhibition assay (MtUGM)
- run.conditions: UGM ligands; FP competition; read-out: K d for MtUGM
measured.parameter: pKd
As a rule, pKd stands for the negative log10 of the concentration, concentration in M.

The reported value for `O=c1ccn([C@@H]2O[C@H](COP(=O)(O)OP(=O)(O)O)[C@@H](O)[C@H]2O)c(=O)[nH]1` in terms of pKd is 4.82

###

Assignment: determine reported pKd for the given molecules.
- target: MtUGM (Mycobacterium tuberculosis, UniProt P9WIQ1)
- Construct: made in house
- assay.overview: Competitive binding FP inhibition assay (MtUGM)
- Experimental: Each solution was done in triplicate. Anisotropy values were measured and the IC50 values obtained by fitting the data to (4), where m 1 and m 2 are the minimum and maximum anisotropy, respectively; m 3 is the slope, and m4 is the IC50.
As a rule, pKd stands for the negative log10 of the concentration, concentration in M.

Simply: O=C1N/C(=N/S(=O)(=O)c2ccccc2)S/C1=C1/C(=O)Nc2ccc([N+](=O)[O-])cc21 [compound 8] , MtUGM (Mycobacterium tuberculosis, UniProt P9WIQ1), pKd = 4.60

Simply: O=C(Nc1ccccc1C(=O)O)c1ccc2c(c1)C(=O)N(c1ccc(Br)cc1)C2=O [compound 7] , MtUGM (Mycobacterium tuberculosis, UniProt P9WIQ1), pKd = 4.68
